Target: CCDC6-RET (Homo sapiens, UniProt P07949+Q16204+Q96SW2)
Construct: CCDC6 (natural N-terminal fusion partner, UniProt Q16204); endogenous in cells; host or cells: TPC-1 (parental, papillary thyroid carcinoma)
Sequence (Q16204+P07949 fused): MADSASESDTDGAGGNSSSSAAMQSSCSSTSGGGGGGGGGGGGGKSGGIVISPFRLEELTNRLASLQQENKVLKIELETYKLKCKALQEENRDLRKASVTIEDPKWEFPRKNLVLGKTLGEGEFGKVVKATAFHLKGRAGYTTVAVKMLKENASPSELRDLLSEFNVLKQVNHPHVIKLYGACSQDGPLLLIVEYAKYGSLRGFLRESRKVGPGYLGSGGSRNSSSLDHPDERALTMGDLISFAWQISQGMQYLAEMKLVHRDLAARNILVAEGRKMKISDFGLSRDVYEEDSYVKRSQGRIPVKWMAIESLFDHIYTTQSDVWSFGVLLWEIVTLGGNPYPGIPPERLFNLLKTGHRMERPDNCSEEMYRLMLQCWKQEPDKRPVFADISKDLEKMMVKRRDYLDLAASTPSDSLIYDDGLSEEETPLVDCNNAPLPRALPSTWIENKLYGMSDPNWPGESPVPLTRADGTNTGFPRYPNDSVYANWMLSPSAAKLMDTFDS
Sequence (Q96SW2 whole entry, the tested form may be a part): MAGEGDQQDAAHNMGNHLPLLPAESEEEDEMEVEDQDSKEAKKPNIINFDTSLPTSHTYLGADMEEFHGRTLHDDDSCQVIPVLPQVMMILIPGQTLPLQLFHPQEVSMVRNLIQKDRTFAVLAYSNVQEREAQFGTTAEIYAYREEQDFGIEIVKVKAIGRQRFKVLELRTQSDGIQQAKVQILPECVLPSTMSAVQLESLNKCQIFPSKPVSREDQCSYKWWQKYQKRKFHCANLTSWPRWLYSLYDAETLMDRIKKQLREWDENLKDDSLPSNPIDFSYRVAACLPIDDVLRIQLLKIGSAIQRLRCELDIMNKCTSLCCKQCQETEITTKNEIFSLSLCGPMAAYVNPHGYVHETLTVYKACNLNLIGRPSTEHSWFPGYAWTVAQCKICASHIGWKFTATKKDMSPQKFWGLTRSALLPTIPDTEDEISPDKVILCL
Sequence (Q16531 whole entry partner, the tested form may be a part): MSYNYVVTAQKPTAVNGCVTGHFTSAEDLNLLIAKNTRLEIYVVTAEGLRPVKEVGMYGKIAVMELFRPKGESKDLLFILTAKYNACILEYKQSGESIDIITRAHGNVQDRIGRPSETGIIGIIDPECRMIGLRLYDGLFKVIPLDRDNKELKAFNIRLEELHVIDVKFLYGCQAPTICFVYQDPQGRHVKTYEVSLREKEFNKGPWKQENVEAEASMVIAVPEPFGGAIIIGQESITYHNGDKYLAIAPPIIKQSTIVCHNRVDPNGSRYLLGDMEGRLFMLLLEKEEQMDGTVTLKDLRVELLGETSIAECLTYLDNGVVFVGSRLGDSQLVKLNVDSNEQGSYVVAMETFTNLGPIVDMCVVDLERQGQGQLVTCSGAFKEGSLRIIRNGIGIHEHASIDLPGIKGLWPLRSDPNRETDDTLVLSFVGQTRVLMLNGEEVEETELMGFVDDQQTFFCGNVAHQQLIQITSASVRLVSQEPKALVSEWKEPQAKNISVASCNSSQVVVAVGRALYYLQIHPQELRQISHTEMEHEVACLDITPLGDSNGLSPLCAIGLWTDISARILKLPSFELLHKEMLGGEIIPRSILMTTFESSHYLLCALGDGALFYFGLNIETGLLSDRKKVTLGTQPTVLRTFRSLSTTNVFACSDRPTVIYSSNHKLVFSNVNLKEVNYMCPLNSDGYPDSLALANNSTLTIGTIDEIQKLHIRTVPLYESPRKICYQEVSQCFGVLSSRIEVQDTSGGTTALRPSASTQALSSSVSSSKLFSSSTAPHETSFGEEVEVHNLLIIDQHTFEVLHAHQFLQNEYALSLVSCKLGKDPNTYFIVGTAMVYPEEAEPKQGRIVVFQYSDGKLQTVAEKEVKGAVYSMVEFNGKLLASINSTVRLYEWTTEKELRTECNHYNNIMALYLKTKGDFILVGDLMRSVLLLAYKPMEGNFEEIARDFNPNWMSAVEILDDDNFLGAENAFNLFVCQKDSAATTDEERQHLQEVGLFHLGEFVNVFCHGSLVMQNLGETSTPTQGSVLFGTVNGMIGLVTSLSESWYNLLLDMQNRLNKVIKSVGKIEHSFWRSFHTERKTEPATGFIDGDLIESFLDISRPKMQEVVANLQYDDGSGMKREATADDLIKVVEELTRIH
Test: Cellular RET degradation, AlphaLISA, TPC-1 cell line
Assay type: cell-based
Conditions: TPC1, human, 24 h, read-out: Cell Density TPC-1/CCDC6-RET Ymax %

{"columns": ["molecule", "Dmax"],
 "data": [
  ["CCOc1cc(-c2ccc(N3CCC(CN(C(=O)CCCCCCN4CCC(c5ccc6c(c5)C(=O)N(C5CCC(=O)NC5=O)C6)CC4)C(C)C)(NC(=O)c4cc(F)ccc4F)CC3)nc2)c2c(C#N)cnn2c1 (centres unmarked)", "> 90%"],
  ["CCOc1cc(-c2ccc(N3CCC(CN4CCC5(CCC(CC(=O)N6CCN(c7ccc8c(c7)C(=O)N(C7CCC(=O)NC7=O)C8)CC6)CC5)CC4)(NC(=O)c4cc(F)ccc4F)CC3)nc2)c2c(C#N)cnn2c1 (centres unmarked)", "> 90%"],
  ["CCOc1cc(-c2ccc(N3CCC(CN4CCN(C(=O)CCCCCCCCNc5cccc(NC6CCC(=O)NC6=O)c5)CC4)(NC(=O)c4cc(F)ccc4F)CC3)nc2)c2c(C#N)cnn2c1 (centres unmarked)", "> 90%"],
  ["CCOc1cc(-c2ccc(N3CCC(COCc4cn(CCCN5CCN(c6ccc7c(c6)CN(C6CCC(=O)NC6=O)C7=O)CC5)nn4)(NC(=O)c4cc(F)ccc4F)CC3)nc2)c2c(C#N)cnn2c1 (centres unmarked)", "60 to 90%"],
  ["CCOc1cc(-c2ccc(N3CCC(CN4CCN(C(=O)CCN5CCC(c6ccc7c(c6)C(=O)N(C6CCC(=O)NC6=O)C7)CC5)CC4)(C(=O)NC(C)C)CC3)nc2)c2c(C#N)cnn2c1 (centres unmarked)", "60 to 90%"]
]}

----------
Reported values of Dmax for individual entries
Target: CCDC6-RET (Homo sapiens, UniProt P07949+Q16204+Q96SW2)
Construct: CCDC6 (natural N-terminal fusion partner, UniProt Q16204); endogenous in cells; host or cells: TPC-1 (parental, papillary thyroid carcinoma)
Assay: Cellular RET degradation, AlphaLISA, TPC-1 cell line
Type: cell-based
Conditions: TPC1, human, 24 h, read-out: Cell Density TPC-1/CCDC6-RET Ymax %

{"columns": ["compound", "studySystem", "Dmax"],
 "data": [
  ["CCOc1cc(-c2ccc(N3CCC(CN4CCN(CCC(=O)N5CCN(c6ccc7c(c6)C(=O)N(C6CCC(=O)NC6=O)C7)CC5)CC4)(NC(=O)c4cc(F)ccc4F)CC3)nc2)c2c(C#N)cnn2c1 (stereo not shown) [Example 115]", "CCDC6-RET (Homo sapiens, UniProt P07949+Q16204+Q96SW2)", "60 to 90%"],
  ["CCOc1cc(-c2ccc(N3CCC(CN4CCN(C(=O)CCCCCCCCCCNC(=O)COc5cccc6c5CN(C5CCC(=O)NC5=O)C6=O)CC4)(NC(=O)c4cc(F)ccc4F)CC3)nc2)c2c(C#N)cnn2c1 (stereo not shown) [Example 28]", "CCDC6-RET (Homo sapiens, UniProt P07949+Q16204+Q96SW2)", "60 to 90%"],
  ["CCOc1cc(-c2ccc(N3CCC(CN(C)C(=O)CCCCCCN4CCN(c5ccc6c(c5)C(=O)N(C5CCC(=O)NC5=O)C6)CC4)(NC(=O)c4cc(F)ccc4F)CC3)nc2)c2c(C#N)cnn2c1 (stereo not shown) [Example 143]", "CCDC6-RET (Homo sapiens, UniProt P07949+Q16204+Q96SW2)", "> 90%"],
  ["CCOc1cc(-c2ccc(N3CCC(COCCN4CCN(C(=O)CCN5CCN(c6ccc7c(c6)CN(C6CCC(=O)NC6=O)C7=O)CC5)CC4)(NC(=O)c4cc(F)ccc4F)CC3)nc2)c2c(C#N)cnn2c1 (stereo not shown) [Example 34]", "CCDC6-RET (Homo sapiens, UniProt P07949+Q16204+Q96SW2)", "> 90%"]
]}

----------
Biological target: CCDC6-RET (Homo sapiens, UniProt P07949+Q16204+Q96SW2)
Construct: CCDC6 (natural N-terminal fusion partner, UniProt Q16204); endogenous in cells; host or cells: TPC-1 (parental, papillary thyroid carcinoma)
Experiment: Cellular RET degradation, AlphaLISA, TPC-1 cell line
Format: cell-based
Conditions: read-out: Cell Density TPC-1/CCDC6-RET DC50; half-maximal degradation concentration; TPC-1 (CCDC6-RET), 24 hrs

{"columns": ["compound", "DC50"],
 "data": [
  ["CCOc1cc(-c2ccc(N3CCC(NC(=O)c4cc(F)ccc4F)(C(=O)NCCCCN4CCC(c5ccc6c(c5)C(=O)N(C5CCC(=O)NC5=O)C6)CC4)CC3)nc2)c2c(C#N)cnn2c1 (centres unmarked)", "10 to 100 nM"],
  ["CCOc1cc(-c2ccc(N3CCC(CN4CCN(C(=O)CCN5CCC(c6ccc7c(c6)C(=O)N(C6CCC(=O)NC6=O)C7)CC5)CC4)CC3)nc2)c2c(C#N)cnn2c1 (centres unmarked)", "100 to 2000 nM"],
  ["CCOc1cc(-c2ccc(N3CCC(CN4CCC5(CC4)CCN(C(=O)CCN4CCC(c6ccc7c(c6)CN(C6CCC(=O)NC6=O)C7=O)CC4)CC5)(NC(=O)c4cc(F)ccc4F)CC3)nc2)c2c(C#N)cnn2c1 (centres unmarked)", "10 to 100 nM"],
  ["CCOc1cc(-c2ccc(N3CCC(CN4CCN(CCOCCOCCC(=O)N5CCN(c6ccc7c(c6)CN(C6CCC(=O)NC6=O)C7=O)CC5)CC4)(NC(=O)c4cc(F)ccc4F)CC3)nc2)c2c(C#N)cnn2c1 (centres unmarked)", "10 to 100 nM"],
  ["CCOc1cc(-c2ccc(N3CCC(CN4CCN(C(=O)CCCCCCNc5cccc(NC6CCC(=O)NC6=O)c5)CC4)(NC(=O)c4cc(F)ccc4F)CC3)nc2)c2c(C#N)cnn2c1 (centres unmarked)", "10 to 100 nM"]
]}

----------
Biological target: CCDC6-RET (Homo sapiens, UniProt P07949+Q16204+Q96SW2)
Construct: CCDC6 (natural N-terminal fusion partner, UniProt Q16204); endogenous in cells; host or cells: TPC-1 (parental, papillary thyroid carcinoma)
Experiment: Cellular RET degradation, AlphaLISA, TPC-1 cell line
Type: cell-based
Conditions: TPC1, human, 24 h, read-out: Cell Density TPC-1/CCDC6-RET Ymax %
List of Dmax values.

{"columns": ["molecule", "studySystem", "Dmax"],
 "data": [
  ["CCOc1cc(-c2ccc(N3CCC(CN4CCN(CC5CCN(C(=O)COc6ccc7c(c6)CN(C6CCC(=O)NC6=O)C7=O)CC5)CC4)(NC(=O)c4cc(F)ccc4F)CC3)nc2)c2c(C#N)cnn2c1 (centres unmarked)", "CCDC6-RET (Homo sapiens, UniProt P07949+Q16204+Q96SW2)", "60 to 90%"],
  ["CCOc1cc(-c2ccc(N3CCC(CN4CCN(CC5CCN(C(=O)Cc6ccc7c(c6)C(=O)N(C6CCC(=O)NC6=O)C7)CC5)CC4)(NC(=O)c4cc(F)ccc4F)CC3)nc2)c2c(C#N)cnn2c1 (centres unmarked)", "CCDC6-RET (Homo sapiens, UniProt P07949+Q16204+Q96SW2)", "> 90%"],
  ["CCOc1cc(-c2ccc(N3CCC(CN(C)C(=O)CCCCCCN4CCN(c5ccc6c(c5)CN(C5CCC(=O)NC5=O)C6=O)CC4)(NC(=O)c4cc(F)ccc4F)CC3)nc2)c2c(C#N)cnn2c1 (centres unmarked)", "CCDC6-RET (Homo sapiens, UniProt P07949+Q16204+Q96SW2)", "> 90%"],
  ["CCOc1cc(-c2ccc(N3CCC(CN4CCC5(CCC(CC(=O)N6CCC(c7ccc8c(c7)CN(C7CCC(=O)NC7=O)C8=O)CC6)CC5)CC4)(NC(=O)c4cc(F)ccc4F)CC3)nc2)c2c(C#N)cnn2c1 (centres unmarked)", "CCDC6-RET (Homo sapiens, UniProt P07949+Q16204+Q96SW2)", "> 90%"],
  ["CCOc1cc(-c2ccc(N3CCC(CN4CCN(C(=O)C5CC6(CC(Nc7ccc8c(N9CCC(=O)NC9=O)nn(C)c8c7)C6)C5)CC4)(NC(=O)c4cc(F)ccc4F)CC3)nc2)c2c(C#N)cnn2c1 (centres unmarked)", "CCDC6-RET (Homo sapiens, UniProt P07949+Q16204+Q96SW2)", "> 90%"]
]}

----------
Target: CCDC6-RET (Homo sapiens, UniProt P07949+Q16204+Q96SW2)
Construct: CCDC6 (natural N-terminal fusion partner, UniProt Q16204); endogenous in cells; host or cells: TPC-1 (parental, papillary thyroid carcinoma)
Assay: Cellular RET degradation, AlphaLISA, TPC-1 cell line
Type: cell-based
Conditions: read-out: Cell Density TPC-1/CCDC6-RET DC50; half-maximal degradation concentration; TPC-1 (CCDC6-RET), 24 hrs
Entries and their DC50 values follow.

{"columns": ["compound", "DC50"],
 "data": [
  ["CCOc1cc(-c2ccc(N3CCC(CN4CCN(C(=O)CCN5CCC(Oc6ccc7c(c6)CN(C6CCC(=O)NC6=O)C7=O)CC5)CC4)(NC(=O)c4cc(F)ccc4F)CC3)nc2)c2c(C#N)cnn2c1 (centres unmarked) [Example 118]", "2 to 10 nM"],
  ["CCOc1cc(-c2ccc(N3CCC(CN4CCC(N5CC(N6CCC(c7ccc8c(c7)C(=O)N(C7CCC(=O)NC7=O)C8)CC6)C5)CC4)(NC(=O)c4cc(F)ccc4F)CC3)nc2)c2c(C#N)cnn2c1 (centres unmarked) [Example 71]", "< 2 nM"],
  ["CCOc1cc(-c2ccc(N3CCC(CN4CC5(C4)CN(C(=O)COc4ccc6c(c4)CN(C4CCC(=O)NC4=O)C6=O)C5)(NC(=O)c4cc(F)ccc4F)CC3)nc2)c2c(C#N)cnn2c1 (centres unmarked) [Example 97]", "2 to 10 nM"],
  ["CCOc1cc(-c2ccc(N3CCC(Cc4ccccc4)(NC(=O)CN4CCN(C(=O)CCN5CCC(c6ccc7c(c6)C(=O)N(C6CCC(=O)NC6=O)C7)CC5)CC4)CC3)nc2)c2c(C#N)cnn2c1 (centres unmarked) [Example 53]", "10 to 100 nM"],
  ["CCOc1cc(-c2ccc(N3CCC(CN4CCN(C(=O)CCN5CC(Oc6ccc7c(c6)CN(C6CCC(=O)NC6=O)C7=O)C5)CC4)(NC(=O)c4cc(F)ccc4F)CC3)nc2)c2c(C#N)cnn2c1 (centres unmarked) [Example 120]", "< 2 nM"]
]}

Each recorded value in this set is attributed to patent US20260356830A1.
